Target: EGFR (Homo sapiens, UniProt P00533)
Construct: endogenous in cells; host or cells: A431 cells (lysate, captured with SUMO1 anti-EGFR antibody)
Sequence (P00533 25-1210): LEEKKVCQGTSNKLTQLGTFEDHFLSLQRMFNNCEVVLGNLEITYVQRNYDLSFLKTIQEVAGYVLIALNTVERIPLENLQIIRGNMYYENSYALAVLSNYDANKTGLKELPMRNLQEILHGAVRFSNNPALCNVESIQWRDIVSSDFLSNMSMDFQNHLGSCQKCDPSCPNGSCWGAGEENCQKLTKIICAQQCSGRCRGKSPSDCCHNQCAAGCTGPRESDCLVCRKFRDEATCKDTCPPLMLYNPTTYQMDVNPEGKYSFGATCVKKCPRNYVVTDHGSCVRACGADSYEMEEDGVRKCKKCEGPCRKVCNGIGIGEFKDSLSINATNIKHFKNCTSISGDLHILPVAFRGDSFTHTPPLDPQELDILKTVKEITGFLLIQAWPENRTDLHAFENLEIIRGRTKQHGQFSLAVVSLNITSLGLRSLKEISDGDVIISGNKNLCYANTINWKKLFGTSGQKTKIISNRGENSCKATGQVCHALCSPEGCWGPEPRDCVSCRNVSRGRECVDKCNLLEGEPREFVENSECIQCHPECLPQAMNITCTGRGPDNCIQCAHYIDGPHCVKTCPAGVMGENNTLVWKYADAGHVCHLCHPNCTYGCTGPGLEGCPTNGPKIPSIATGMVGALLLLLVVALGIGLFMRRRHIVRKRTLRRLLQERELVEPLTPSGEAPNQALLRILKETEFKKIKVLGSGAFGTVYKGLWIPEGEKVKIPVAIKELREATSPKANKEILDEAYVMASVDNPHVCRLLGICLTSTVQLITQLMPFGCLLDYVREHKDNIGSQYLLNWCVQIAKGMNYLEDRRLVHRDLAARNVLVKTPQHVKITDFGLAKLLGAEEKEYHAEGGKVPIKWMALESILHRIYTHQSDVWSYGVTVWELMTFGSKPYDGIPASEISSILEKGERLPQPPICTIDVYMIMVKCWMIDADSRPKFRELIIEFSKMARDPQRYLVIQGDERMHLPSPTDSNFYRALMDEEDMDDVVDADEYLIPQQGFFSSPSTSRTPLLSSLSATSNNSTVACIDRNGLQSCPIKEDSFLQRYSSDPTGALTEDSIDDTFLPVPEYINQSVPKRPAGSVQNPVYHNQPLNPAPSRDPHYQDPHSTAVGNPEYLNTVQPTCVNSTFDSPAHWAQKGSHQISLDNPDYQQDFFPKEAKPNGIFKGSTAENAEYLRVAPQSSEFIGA
Test: Biochemical EGFR Assay
Design: concentration or dose not given beside the values
Procedure: This assay measures the in vitro kinase activity of EGFR using ELISA. 1. Corning 96-well Elisa plates (Corning Catalog No. 25805-96). 2. SUMO1 monoclonal anti-EGFR antibody (Biochemistry Lab, SUGEN, Inc.). 3. PBS (Dulbecco's Phosphate-Buffered Saline, Gibco Catalog No. 450-1300EB). 6. […] Mix first two ingredients in about 900 ml dH2O, adjust pH to 4.0 with phosphoric acid. […] The solution should be kept in the dark at 4° C. until ready to use. […] 22. Read assay on Dynatech MR7000 ELISA reader. […]
measurement kind: Biochem EGFR % Inhibition (P.167) (%)
Give bare numbers, in %.

| input smiles | tested system | Biochem EGFR % Inhibition (P.167), % |
| --- | --- | --- |
| Cc1c(Br)cc(Br)c2c1C(=Cc1ccc(O)cc1)C(=O)N2 | EGFR (Homo sapiens, UniProt P00533) | −2.8 |

I have 3 molecules here; please give me Biochem EGFR % Inhibition (P.167) for each one.
1. Cc1c(Br)cc(Br)c2c1C(=Cc1cccc(F)c1O)C(=O)N2
2. Cc1c(Br)cc(Br)c2c1C(=Cc1ccccc1Sc1ccc(Cl)cc1)C(=O)N2
3. COc1cc(C=C2C(=O)Nc3c(Br)cc(Br)c(C)c32)cc(OC)c1

Result string:
2.9
0.4
−0.6

Okay, here is my list. What is Biochem EGFR % Inhibition (P.167) for each of these?
1. COc1ccc(C=C2C(=O)Nc3c(Br)cc(Br)c(C)c32)cc1
2. Cc1c(Br)cc(Br)c2c1C(=Cc1cc([N+](=O)[O-])c(O)c(C(C)(C)C)c1)C(=O)N2
3. O=C1Nc2ccc(I)cc2C1=Cc1cc(Cl)cc(Cl)c1O
4. Cc1c(Br)cc(Br)c2c1C(=Cc1c(F)cc(F)cc1F)C(=O)N2

Result string:
1: 1.5; 2: 24.8; 3: 45.1; 4: 17.0

###

Kindly state Flk Kinase % Inhibition (P.110) for each of the entries shown.
system: FLK-1 receptor; assay: FLK-1 Assay (cellular/catalytic ELISA, VEGF-stimulated phosphotyrosine); format: cell-based; set-up: concentration or dose not given beside the values; details: protocol P.110
Give bare numbers, in %.

| compound | measurement kind | observed result |
| --- | --- | --- |
| O=C1Nc2ccc(CCCl)cc2C1=Cc1cccc(F)c1F | Flk Kinase % Inhibition (P.110) | 16.4 |

State the recorded Flk Kinase % Inhibition (P.110) for every item in the following list.
1. CNS(=O)(=O)c1ccc2c(c1)C(=CN1CCCC1OC)C(=O)N2 (stereo not drawn)
2. CN(C)CCCOc1ccc(C=C2C(=O)Nc3ccc(S(=O)(=O)N4CCOCC4)cc32)cc1

Result string:
−2.0
15.6

The following compounds each have a reported value; give each one's Flk Kinase % Inhibition (P.110).
1. O=C1Nc2ccc(S(=O)(=O)N3CCOCC3)cc2C1=Cc1ccc(Oc2ccccc2)cc1
2. Cc1c(Br)cc(Br)c2c1C(=Cc1cnc3ccccc3c1)C(=O)N2
3. CC(C)(C)c1ccc(Oc2cccc(C=C3C(=O)Nc4c(Br)cc(Br)cc43)c2)cc1

Result string:
1. 15.4
2. −3.7
3. 6.0
